Catalogue of growth inhibition values
# protocol description: NCI Yeast Anticancer Drug Screen. Data for the mec2-1 strain (AID 157)
# condition details: S. cerevisiae mec2-1 strain, at 50.0 µM (retest, dose inferred, filed as 5.0), stronger effect = higher value
This is part of a sample that, as a whole, favours compounds with a hit. Of some 79,000 tested, about 15% had one in any assay.
All answers are understood in %, so give the number only.

Examples from the recorded data:
compound	growth inhibition (%)
C=Nc1ccc2ccccc2c1Cc1c(O)ccc2ccccc12	99
COc1cc(/C=C/C(=N\NC(=O)c2ccccc2)c2sc(Nc3ccc(Cl)c(Cl)c3)nc2C)ccc1O	29
CC1(c2ccccc2)NC(=O)N(CC(=O)N(c2ccccc2)c2ccccc2)C1=O (stereo not given)	33
COc1ccc(/C(=N/NC(N)=O)C(c2ccc(OC)cc2)C2C(=O)Oc3ccccc32)cc1 (stereo not given)	96

Data request, read-out growth inhibition, for O=C(NNc1ccccc1)C(O)C(=O)C(O)C(O)C(O)CO (stereo not given)
8

----------
# protocol description: NCI Yeast Anticancer Drug Screen. Data for the sgs1 mgt1 strain (AID 161);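 further: 0% = growth of cultures given vehicle only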
# condition details: S. cerevisiae sgs1 mgt1 strain, at 50.0 µM (retest, dose inferred, filed as 5.0)
Compounds without any hit were thinned out: in the full panel of roughly 79,000, 15% have a hit. Active and inactive are the calls of the source. Cut-off read from the data, not from the text of the source: active = growth inhibition above about 70%; inactive = the rest.
Give your call using only these classes: active, inactive

Please review the following examples before continuing.
compound	label
CC12CC[C@@H](C(C)(C)O)C1[C@@H](O)CC1(C)C2CCC2[C@@]3(C)CC[C@H](O)C(C)(C)C3C(O)C[C@]21C (stereo partly specified)	active
COc1ccc(C(=O)C2C(=O)C(=O)OC2C2OC(=O)C(=O)C2C(=O)c2ccc(OC)cc2)cc1 (stereo unspecified)	inactive
CCOc1ccc(/C=N\NC(=O)c2ccco2)cc1OCC	inactive

# outcome recorded in this test, key = "O=c1cccccc1[O-].O=c1cccccc1[O-].O=c1cccccc1[O-].[Nd+3]"
inactive

Outcome? "CN(C)C=NCCNc1ccc([N+](=O)[O-])cn1"
inactive

Outcome? "NC1CCCCC1N.O=S(=O)([O-])CCCN1CCOCC1.O=S(=O)([O-])CCCN1CCOCC1.[Pt+4]"
active

Test call for this compound, please: "Cc1cc(NC(=S)SCc2ccc(Cl)cc2)c([N+](=O)[O-])cc1C"
active

----------
# protocol description: NCI Yeast Anticancer Drug Screen. Data for the mlh1 rad18 strain (AID 175)
# condition details: S. cerevisiae mlh1 rad18 strain growth inhibition; at 5.0 µM (retest, dose inferred, filed as 0.5); stronger effect = higher value
This is part of a sample that, as a whole, favours compounds with a hit. Of some 79,000 tested, about 15% had one in any assay. The source made the active and inactive calls. No stated cut-off is given here; in the data, active means growth inhibition above about 70%; inactive means the rest.
The following molecules are listed with their measured growth inhibition values.

For orientation, consider the following solved cases.
molecule	growth inhibition
CCOP(=O)(CCC(=O)[C@@]1(O)CC[C@H]2[C@@H]3CCC4=CC(=O)CC[C@]4(C)[C@H]3CC[C@@]21C)OCC	-4% (inactive)
CCCCCCCCCCCCCC1OC(=O)C(C)=C1C(=O)O (stereo unspecified)	-10% (inactive)
CC(=O)C1CCCCC1/C=C/[N+](=O)[O-] (stereo unspecified)	42% (inactive)
CC(=O)Oc1c(O)c2ccccc2c2ccccc12	-4% (inactive)
CCOC(=O)CSC(=S)N1CCOCC1	-2% (inactive)
Oc1ccc(Br)cc1C=Nc1c(NC2CCCCC2)oc2ccc(Br)cc12	-4% (inactive)
O=C(/C=C/c1ccccc1)c1cc2c(cc1O)OCO2	-16% (inactive)
O=C(O)CCCCCCCCC(=O)CCl	38% (inactive)
CC[C@@H]1O[C@@H]([C@@H]2CC[C@](O)([C@]3(C)CC[C@@H]([C@@H](C)[C@@]4(O)CC[C@H](C)[C@@H](C[C@@]5(O)O[C@@H]([C@@H](C)[C@H](O)C[C@H]6CC[C@H](C)[C@@H]([C@@H](C)C(=O)O)O6)CC[C@@H]5C)O4)O3)O2)CC[C@@]1(C)O	-18% (inactive)
CC(C)C(CC(C)(C)C)OC(=O)Nc1cccc2ccccc12 (stereo unspecified)	-3% (inactive)

growth inhibition for "CSc1ccc(/C=C2\CN(C)C/C(=C\c3ccc(SC)cc3)C2=O)cc1" ?
29% (inactive)

// query growth inhibition value for entry "O=Cc1ccc2cc(Cl)ccc2n1"
-138% (inactive)

Quick one: growth inhibition for "O=[N+]([O-])c1c(Cl)c(Cl)c(O)c(Cl)c1Cl" ?
32% (inactive)

----------
# protocol description: NCI Yeast Anticancer Drug Screen. Data for the sgs1 mgt1 strain (AID 161);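 further: 0% = growth of cultures given vehicle only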
# condition details: S. cerevisiae sgs1 mgt1 strain, at 50.0 µM (retest, dose inferred, filed as 5.0)
Compounds without any hit were thinned out: in the full panel of roughly 79,000, 15% have a hit. Active and inactive are the calls of the source. Rule as the data show it: active = growth inhibition above about 70%; inactive = the rest.
Parameter call: string, one of active, inactive

compound	label
OC(CBr)c1cc(-c2ccccc2)nc2ccccc12 (stereo not given)	active
OC(CBr)c1c(Br)ccc2ccccc12 (stereo not given)	active
O=C(NC(c1ccccc1)N1CCOCC1)c1ccccc1 (stereo not given)	inactive

Hi, sorry to bother you, what did the test record for "CCCCCCCn1ccnc1NCCCCCCCCCCNc1nccn1CCCCCCC" ?
active

Please state the recorded outcome for this compound: COc1ccc(C2CC(c3sc(Nc4ccc(C)cc4)nc3C)=NN2)cc1 (stereo not given)
inactive

----------
Reported growth inhibition by item:
# protocol description: NCI Yeast Anticancer Drug Screen. Data for the sgs1 mgt1 strain (AID 161);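 further: 0% = growth of cultures given vehicle only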
# condition details: S. cerevisiae sgs1 mgt1 strain, at 50.0 µM (retest, dose inferred, filed as 5.0), stronger effect = higher value
The panel holds about 79,000 compounds, 15% with a hit somewhere; the sample as a whole holds those more often.
// return numeric value only (unit: %, not printed)

molecule	unit text	observed
Cn1cc(NC(=O)Nc2cc(C(=O)Nc3cc(C(=O)Nc4cc(S(=O)(=O)O)c5cc(S(=O)(=O)O)cc(S(=O)(=O)O)c5c4)n(C)c3)n(C)c2)cc1C(=O)Nc1cc(C(=O)Nc2cc(S(=O)(=O)O)c3cc(S(=O)(=O)O)cc(S(=O)(=O)O)c3c2)n(C)c1	%	77
CCN(CC)CCOc1ccc(/C(C#N)=C/c2ccc3ccccc3c2)cc1	%	100
CCc1nc(N)nc(N)c1-c1ccc(N(C)Cc2ccccc2)c([N+](=O)[O-])c1	%	37
CCOC(=O)C(NC(C)=O)[CH](c1ccccc1)[Sn]([c]1ccccc1)([c]1ccccc1)[c]1ccccc1 (stereo not drawn)	%	95
O=[N+]([O-])c1nccn1CCCNCCCn1ccnc1[N+](=O)[O-]	%	26
C(CCCCCN1CCCCC1)CCCCN1CCCCC1	%	-14

Report growth inhibition for "COc1ccc(Cc2ccccc2C(=O)O)c2ccccc12" please.
99

State the recorded growth inhibition for this entry: COc1ccc(C(=O)NCCN2CCN3Cc4[nH]c5ccccc5c4CC3C2)cc1 (stereo not drawn)
8

----------
# protocol description: NCI Yeast Anticancer Drug Screen. Data for the mlh1 rad18 strain (AID 175)
# condition details: S. cerevisiae mlh1 rad18 strain growth inhibition; at 50.0 µM
About 79,000 compounds went through this panel and 15% of them were active in at least one assay; those are over-represented in the sample as a whole. Active and inactive are the calls of the source. Cut-off read from the data, not from the text of the source: active = growth inhibition above about 70%; inactive = the rest.
Result category, one only: 1 = active, -1 = inactive

Some solved cases for reference:
compound	label
Cc1c2cc[n+](C)cc2c(COC2OC(CO)C(O)C2O)c2c3ccccc3n(C)c12 (centres undefined)	-1
c1ccc2sc(SSN3CCOCC3)nc2c1	1
Oc1ccc(COCCBr)c2cccnc12	1

// param item: "CSC1=NSC(c2ccccc2)=C(c2ccccc2)S1" ; yields the recorded call
-1

----------
# protocol description: NCI Yeast Anticancer Drug Screen. Data for the sgs1 mgt1 strain (AID 161);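 further: 0% = growth of cultures given vehicle only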
# condition details: S. cerevisiae sgs1 mgt1 strain, at 50.0 µM (retest, dose inferred, filed as 5.0)
About 79,000 compounds went through this panel and 15% of them were active in at least one assay; those are over-represented in the sample as a whole. Calls of active or inactive are those of the source. No stated cut-off is given here; in the data, active means growth inhibition above about 70%; inactive means the rest.
Form entry, call: pick from YES (active), NO (inactive)

Example entries and their recorded answers appear below.
compound	label
O=C1OC(=O)c2cccc3cccc1c23	YES
CCOC(=O)c1ccc(-c2cccs2)n1C	NO

Per the assay record, what outcome was assigned to "COC(=O)c1c(C(N)=O)c(C)n(NC(=O)Nc2ccccc2)c1C" ?
YES

Would you mind telling me which call this test gave "NS(=O)(=O)c1ccc(NC(=O)Cc2nc3ccccc3s2)cc1" ?
YES

What did this assay record as the result for Nc1ccccc1SC(/C=C/NNC1=NC(c2ccccc2)C(c2ccccc2)=NN1)c1ccccc1 (stereo unspecified) ?
NO

Entry CC1CCC(C(C)C)C(OC(=O)Nc2ccc(S(=O)(=O)N(C)C)cc2)C1 (stereo unspecified) : call = ?
YES

----------
# protocol description: NCI Yeast Anticancer Drug Screen. Data for the cln2 rad14 strain (AID 165);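 further: 0% = growth equal to vehicle treated cultures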
# condition details: S. cerevisiae cln2 rad14 strain, at 5.0 µM (retest, dose inferred, filed as 0.5), stronger effect = higher value
Compounds without any hit were thinned out: in the full panel of roughly 79,000, 15% have a hit.
growth inhibition values for the molecules below.
Report as a plain number; the unit % is understood.

molecule	unit text	observed
O=C1NC(c2ccccc2)(c2ccccc2)C(=O)N1SC(Cl)(Cl)Cl	%	99
O=C(COc1ccc(Cl)cc1)OCCO	%	3
CN(C)c1ccc(/C=C(\NC(=O)c2ccccc2)c2nc3ccccc3s2)cc1	%	17
Cc1nc(Nc2ccc(Cl)cc2)sc1C(=O)NNC(=O)C(=O)NN	%	-31
CC(C)COP(=O)(OCC(C)C)C(NS(=O)(=O)c1ccccc1)(C(F)(F)F)C(F)(F)F	%	27

Can you look up the measured growth inhibition of "NC(=S)N1N=C2c3ccccc3CCC[C@H]2[C@@H]1c1ccccc1" for me?
12

Consider the molecule shown here: "S=C(NCc1ccccc1)[S][Sb]([S]C(=S)NCc1ccccc1)[c]1ccccc1" What is its recorded growth inhibition?
-6

Name the reported growth inhibition value associated with the molecule "CC(C)(C)OC(=O)N(CCCCNCc1ccc2ccccc2c1)CCCNCc1ccc2ccccc2c1"
3

# input molecule: "Fc1ccccc1CN1COc2c(cc(Cl)c3cccnc23)C1" ; wanted: its growth inhibition
1

Consider the molecule shown here: "CC[C@@H]1O[C@@H]([C@@H]2CC[C@](O)([C@]3(C)CC[C@@H]([C@@H](C)[C@@]4(O)CC[C@H](C)[C@@H](C[C@@]5(O)O[C@@H]([C@@H](C)[C@H](O)C[C@H]6CC[C@H](C)[C@@H]([C@@H](C)C(=O)O)O6)CC[C@@H]5C)O4)O3)O2)CC[C@@]1(C)O" What is its recorded growth inhibition?
58

Which growth inhibition value is on record for "O=[N+]([O-])c1ccc(C(Br)(Br)c2ccc([N+](=O)[O-])cc2)cc1" ?
95

growth inhibition for "CCc1ccc(C)nc1" ?
0

growth inhibition lookup needed for "COc1nc(N)c(N=O)c(OCc2ccccc2)n1" , thanks.
55

// returns reported growth inhibition for input "NN(c1ccccc1)c1cccc2ccccc12"
-4

Look at this molecule and give its reported growth inhibition. "COc1ccc(/C=N/NS(=O)(=O)c2ccccc2)cc1"
-10

Which growth inhibition value belongs to O=C1OC(c2ccccc2)(c2ccc(-c3ccc(O)cc3)cc2)c2ccccc21 (centres undefined) ?
6
